Assay: NCI Yeast Anticancer Drug Screen. Data for the rad14 strain (AID 159);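 also: 0% = growth of vehicle-treated control cultures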
Settings: S. cerevisiae rad14 strain growth inhibition; at 33.0 µM
This is part of a sample that, as a whole, favours compounds with a hit. Of some 79,000 tested, about 15% had one in any assay. Active and inactive are the calls of the source. Rule as the data show it: active = growth inhibition above about 70%; inactive = the rest.
Outcomes: 1.0 (active), 0.0 (inactive)

1) CCOC(=O)Nc1ccc2c(c1)Cc1ccccc1-2 :: 0.0
2) N#CC(=S)Nc1cccc(Cl)c1 :: 0.0
3) Cc1cccc2c1N=C(C(F)(F)F)CC2=O :: 0.0
4) CCN1/C(=C/c2ccc3ccccc3[n+]2CC)C=Cc2ccccc21 :: 1.0
5) O=S(=O)(c1cc(Cl)ccc1O)c1cc(Cl)ccc1O :: 1.0
6) CCC(NC(C)c1ccccc1)C(=O)c1ccc(OCc2ccccc2)c(OCc2ccccc2)c1 (centres undefined) :: 0.0
7) COc1cc(N)ccc1Nc1c2ccccc2nc2ccccc12 :: 0.0
8) ClCCn1c(CCl)nc2ccc(Cl)cc21 :: 1.0
9) CCN(CC)CCNC(=O)c1nn(-c2ccc(Cl)cc2)c2c1CCc1cc(OC)ccc1-2 :: 0.0
10) Nc1nc2c(c(=O)[nH]1)NC(CCNc1ccc(C(=O)O)cc1)CN2 (centres undefined) :: 0.0
11) O=[N+]([O-])c1cc(S(=O)(=O)Nc2ccccc2)ccc1Cl :: 1.0
12) CO[C@@]12[C@H](COC(N)=O)C3=C(C(=O)C(C)=C(N)C3=O)N1C[C@@H]1N[C@@H]12 :: 1.0
13) CN(C)CC1CCCc2ccccc2C1=O (centres undefined) :: 0.0
14) Cc1cc(C(C)(C)CC(C)(C)C)cc(O)c1O :: 1.0
15) CCN(CC)CC(O)c1cc(-c2ccc(Cl)cc2)nc2c(-c3ccccc3)cccc12 (centres undefined) :: 1.0
16) O=C(/C=C/c1cccc(Br)c1)c1ccc(Cl)cc1 :: 0.0
17) O=C(Nc1ccc2c(c1)Cc1c-2ccc([N+](=O)[O-])c1F)C(F)(F)F :: 0.0
18) Oc1ccc(C=Nc2ccccc2O)cc1 :: 0.0
19) O=C(NC(=S)Nc1ccccn1)c1ccccc1 :: 0.0
20) O=C1C=CC(=Nc2ccccc2)c2ccccc21 :: 0.0
21) COc1ccc(S(=O)(=O)N/N=C\c2cc([N+](=O)[O-])cc(I)c2O)c(OC)c1OC :: 0.0
22) Nc1ccc2c(c1)sc1ccccc12 :: 0.0
23) O=S(=O)(N/N=C/c1cccc(Cl)c1)c1ccccc1 :: 1.0
24) COC(=O)/C=C1/OC(c2ccc(Br)cc2)=C(Br)C1=O :: 0.0
